ASSAY SUMMARY: Pharmacokinetics of LN002 in rat plasma after single intravenous injection or oral gavage
Format: in vivo, Sprague–Dawley (SD) rats
SETUP CONDITIONS: both sexes, Sprague-Dawley, rat; plasma, oral 200 mg/kg, rats, n = 6, mean ± SD
ASSAY ENDPOINT: AUC(0-inf) (ng·h/mL)
Just the number please, in ng·h/mL, no unit attached.

**Query** Quick check: AUC(0-inf) of N#C/C(=C\c1c[nH]nc1-c1ccccc1)c1nn(-c2ccccc2)c(N)c1C#N [LN002] ?
**Result** 6030

---

ASSAY SUMMARY: Tissue distribution of LN002 after oral administration in rats
Type: in vivo, Sprague–Dawley (SD) rats
SETUP CONDITIONS: both sexes, Sprague-Dawley, rat; brain, oral 200 mg/kg, SD rats, n = 6, mean ± SD
Experimental: Thirty SD rats (15 for each sex) were randomly and equally assigned to 5 groups (half male and half female). The rats in each group were euthanized with pentobarbital sodium (a dose of 180 mg/kg) at five different time points: 0.5, 2, 6, 12 and 24 h after oral administration at 200 mg/kg LN002. […] A Shimadzu LC-20A system (Shimadzu Technologies, Kyoto, Japan) equipped with a LabSolutions system (version 5.1) system was used for HPLC analysis. […] The analytes were detected using a UV detector at 333 nm. […]
ASSAY ENDPOINT: Tmax (min)
Just the number please, in min, no unit attached.

**Query** Quick check: Tmax of `N#C/C(=C\c1c[nH]nc1-c1ccccc1)c1nn(-c2ccccc2)c(N)c1C#N` ?
**Result** 34.8

---

ASSAY SUMMARY: Pharmacokinetics of LN002 in rat plasma after single intravenous injection or oral gavage
Format: in vivo, Sprague–Dawley (SD) rats
SETUP CONDITIONS: both sexes, Sprague-Dawley, rat, iv; plasma, i.v. 1 mg/kg, rats, n = 6, mean ± SD
ASSAY ENDPOINT: clearance (mL/min/kg)
Just the number please, in mL/min/kg, no unit attached.

**Query** Quick check: clearance of N#C/C(=C\c1c[nH]nc1-c1ccccc1)c1nn(-c2ccccc2)c(N)c1C#N [LN002] ?
**Result** 1.83

---

ASSAY SUMMARY: Pharmacokinetics of LN002 in rat plasma after single intravenous injection or oral gavage
Type: in vivo, Sprague–Dawley (SD) rats
SETUP CONDITIONS: both sexes, Sprague-Dawley, rat, plasma, po, 100 mg/kg, oral 100 mg/kg, rats, n = 6, mean ± SD
Method: A total of 24 SD rats, half for each sex, were randomly distributed into four groups and used in the plasma PK study. Heparin sodium was used to prevent blood clotting. Groups 1, 2, and 3 were single-dose oral administration groups, and the administered doses were 100, 200, and 400 mg/kg, respectively. […] The analytes were detected using a UV detector at 333 nm. […]
ASSAY ENDPOINT: Cmax
Respond with a number, then the unit of measure.

**Query** Quick check: Cmax of `N#C/C(=C\c1c[nH]nc1-c1ccccc1)c1nn(-c2ccccc2)c(N)c1C#N` ?
**Result** 850 ng/mL

---

ASSAY SUMMARY: Pharmacokinetics of LN002 in rat plasma after single intravenous injection or oral gavage
Format: in vivo, Sprague–Dawley (SD) rats
SETUP CONDITIONS: both sexes, Sprague-Dawley, rat, plasma, po, 200 mg/kg, plasma, oral 200 mg/kg, rats, n = 6, mean ± SD; read-out: Cl (Cl/F in text) (converted)
ASSAY ENDPOINT: CL/F

**Query** Quick check: CL/F of `N#C/C(=C\c1c[nH]nc1-c1ccccc1)c1nn(-c2ccccc2)c(N)c1C#N` ?
**Result** 524 mL/min/kg
